assay.system: human M2 receptor (Homo sapiens, UniProt P08172)
condition.parameters: Receptor activity EC50, M2-GIRK1/4 activation test, acetylcholine at EC20; allosteric potency; in some cases mean values from two or more determinations
readout.label: EC50 (nM)

CN(C)c1ccc2c(=O)c(C(=O)NC34CC5CC(C3)C(F)(F)C(C5)C4)cn(-c3ccc(F)cc3Cl)c2n1: 106

(P) CC(CC(F)(F)F)NC(=O)c1cn(-c2ccc(F)cc2F)c2nc(N(C)C)ccc2c1=O (racemic)
(Q) CN(C)c1ccc2c(=O)c(C(=O)NC(c3cccc(F)c3)C(F)(F)F)cn(-c3ccc(F)cc3F)c2n1 (racemic)
(R) O=C(NC12CC(C1)C2)c1cn(-c2c(F)cc(F)cc2F)c2nc(N3C[C@@H](O)CC3=O)ccc2c1=O
Exercise: I would appreciate it if you could sort these 3 molecules by EC50, starting from the smallest number. Returns: the labels listed in the requested order.
Solution: R, Q, P
(R: 24 nM, Q: 68 nM, P: 127 nM)

----------
assay.system: human M2 receptor (Homo sapiens, UniProt P08172)
Sequence (P08172 1-466): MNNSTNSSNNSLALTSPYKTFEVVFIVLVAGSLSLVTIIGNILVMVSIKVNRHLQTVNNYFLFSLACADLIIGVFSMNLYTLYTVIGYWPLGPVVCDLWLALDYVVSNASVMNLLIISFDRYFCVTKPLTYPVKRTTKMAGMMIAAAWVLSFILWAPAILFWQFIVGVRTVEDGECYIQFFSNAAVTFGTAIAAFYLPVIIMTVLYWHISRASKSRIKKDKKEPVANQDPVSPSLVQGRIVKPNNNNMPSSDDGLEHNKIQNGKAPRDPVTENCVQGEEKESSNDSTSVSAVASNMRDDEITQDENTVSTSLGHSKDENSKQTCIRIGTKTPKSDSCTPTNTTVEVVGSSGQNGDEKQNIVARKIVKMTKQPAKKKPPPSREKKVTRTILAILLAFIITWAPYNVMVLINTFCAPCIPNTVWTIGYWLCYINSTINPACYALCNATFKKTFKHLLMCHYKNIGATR
condition.parameters: Receptor activity EC50, allosteric potency at EC20 acetylcholine; M2-GIRK1/4 reporter cells; in some cases mean of two or more determinations
pEC50: −log10 of the molar value.
readout.label: pEC50

O=C(NC12CC(C1)C2)c1cn(-c2c(F)cc(F)cc2Cl)c2nc(N3C[C@@H](O)[C@H](O)C3)ccc2c1=O: 7.60
O=C(N[C@@H](C1CC1)C(F)(F)F)c1cn(-c2c(F)cc(F)cc2F)c2nc(N3CC[C@@H](O)C3=O)ccc2c1=O: 7.59
O=C(NC(c1ccccc1Cl)C(F)(F)F)c1cn(-c2c(F)cc(F)cc2F)c2nc(N3C[C@@H](O)[C@H](O)C3)ccc2c1=O (mixture of isomers) [Example 560]: 7.77

----------
assay.system: human M2 receptor (Homo sapiens, UniProt P08172)
Sequence (P08172 1-466): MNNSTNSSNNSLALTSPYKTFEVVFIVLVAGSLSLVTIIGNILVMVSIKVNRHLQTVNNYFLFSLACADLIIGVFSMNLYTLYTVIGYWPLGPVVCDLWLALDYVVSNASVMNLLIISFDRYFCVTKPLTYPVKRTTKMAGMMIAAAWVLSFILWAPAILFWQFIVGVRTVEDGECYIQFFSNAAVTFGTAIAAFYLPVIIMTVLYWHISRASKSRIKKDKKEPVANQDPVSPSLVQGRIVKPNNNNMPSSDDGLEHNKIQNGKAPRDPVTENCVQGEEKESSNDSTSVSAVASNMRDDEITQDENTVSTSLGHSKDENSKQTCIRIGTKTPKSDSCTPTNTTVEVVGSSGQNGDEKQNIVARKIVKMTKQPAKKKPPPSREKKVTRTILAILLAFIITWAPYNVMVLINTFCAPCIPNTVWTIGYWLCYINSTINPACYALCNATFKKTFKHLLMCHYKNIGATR
condition.parameters: read-out: Efficiency, boosting of the acetylcholine effect at EC20 acetylcholine concentration; M2-GIRK1/4 reporter cells
readout.label: Emax (%)

C[C@@H](NC(=O)c1cn(-c2c(F)cc(F)cc2F)c2nc(N3C[C@@H](O)CC3=O)ccc2c1=O)C1CC1 [Example 480]: 100
NC(=O)[C@H]1CN(c2ccc3c(=O)c(C(=O)N[C@@H](C4CC4)C(F)(F)F)cn(-c4c(F)cc(F)cc4F)c3n2)C(=O)O1 [Example 671]: 94
CC(C)[C@@H](C)NC(=O)c1cn(-c2c(F)cc(F)cc2F)c2nc(N3C[C@@H](O)CC3=O)ccc2c1=O [Example 473]: 100
CC(C)(NC(=O)c1cn(-c2c(F)cc(F)cc2F)c2nc(N3C[C@@H](O)[C@H](O)C3)ccc2c1=O)C(F)F [Example 634]: 100
O=C(NC1(CC(F)(F)F)CC1)c1cn(-c2c(F)cc(F)cc2F)c2nc(N3C[C@@H](O)CC3=O)ccc2c1=O [Example 632]: 100
CCC1CCN(c2ccc3c(=O)c(C(=O)N[C@@H](C4CC4)C(F)(F)F)cn(-c4c(F)cc(F)cc4F)c3n2)C(=O)N1 (mixture of isomers) [Example 446]: 85
CC(NC(=O)c1cn(-c2c(F)cc(F)cc2F)c2nc(N3C[C@@H](O)CC3=O)ccc2c1=O)(C1CC1)C(F)(F)F (single isomer, unassigned) [Example 509]: 88
CC(C)[C@@H](C)NC(=O)c1cn(-c2c(F)cc(F)cc2F)c2nc(N3C[C@@H](O)[C@H](O)C3)ccc2c1=O [Example 483]: 92.5
C[C@H](O)CN(C)c1ccc2c(=O)c(C(=O)N[C@@H](C3CC3)C(F)(F)F)cn(-c3c(F)cc(F)cc3F)c2n1 [Example 493]: 94.5
O=C(N[C@@H](C1CC1)C(F)(F)F)c1cn(-c2c(F)cc(F)cc2F)c2nc(N3CCC(O)(CO)CC3)ccc2c1=O [Example 663]: 90.5
O=C(N[C@@H](C1CC1)C(F)(F)F)c1cn(-c2c(F)cc(F)cc2F)c2nc(N3CCC(CO)(CO)CC3)ccc2c1=O [Example 489]: 100
O=C(NC(CC(F)(F)F)C(F)(F)F)c1cn(-c2c(F)cc(F)cc2F)c2nc(N3C[C@@H](O)[C@H](O)C3)ccc2c1=O (some centres unmarked) [Example 545]: 99
CC(C)C(NC(=O)c1cn(-c2c(F)cc(F)cc2F)c2nc(N3C[C@@H](O)[C@H](O)C3)ccc2c1=O)C(C)C [Example 474]: 100
CCC(NC(=O)c1cn(-c2c(F)cc(F)cc2F)c2nc(N3C[C@@H](O)CC3=O)ccc2c1=O)C(F)(F)C(F)(F)F (mixture of isomers) [Example 519]: 96.7
CC(NC(=O)c1cn(-c2c(F)cc(F)cc2F)c2nc(N3C[C@@H](C)NC3=O)ccc2c1=O)C(F)(F)C(F)(F)F (single isomer, unassigned) [Example 459]: 95
O=C(N[C@@H](C1CC1)C(F)(F)F)c1cn(-c2c(F)cc(F)cc2F)c2nc(N3CCC(O)C(O)C3)ccc2c1=O (mixture of isomers) [Example 615]: 99.3
CC[C@H](NC(=O)c1cn(-c2c(F)cc(F)cc2Cl)c2nc(N3C[C@@H](O)CC3=O)ccc2c1=O)C(F)(F)F (single isomer, unassigned) [Example 399]: 96.5
COC1(C)CN(c2ccc3c(=O)c(C(=O)N[C@H](C4CC4)C(F)(F)F)cn(-c4c(F)cc(F)cc4F)c3n2)C1 [Example 605]: 98
CCC(NC(=O)c1cn(-c2c(F)cc(F)cc2F)c2nc(N3C[C@@H](O)CC3=O)ccc2c1=O)C(C)C (mixture of isomers) [Example 484]: 99.5
COC1CN(c2ccc3c(=O)c(C(=O)N[C@@H](C4CC4)C(F)(F)F)cn(-c4c(F)cc(F)cc4F)c3n2)CC1O (mixture of isomers) [Example 582]: 100
CC1CCN(c2ccc3c(=O)c(C(=O)N[C@@H](C)C(F)(F)F)cn(-c4c(F)cc(F)cc4Cl)c3n2)C1=O (mixture of isomers) [Example 418]: 89
CC[C@H](NC(=O)c1cn(-c2c(F)cccc2F)c2nc(N3CC4CC4(O)C3)ccc2c1=O)C(F)(F)F (mixture of isomers) [Example 417]: 100
O=C(N[C@@H](C1CC1)C(F)(F)F)c1cn(-c2c(F)cc(F)cc2Cl)c2nc(N3C[C@@H](O)[C@H](O)C3)ccc2c1=O [Example 546]: 100

----------
assay.system: human M2 receptor (Homo sapiens, UniProt P08172)
condition.parameters: Receptor activity EC50, allosteric potency at EC20 acetylcholine; M2-GIRK1/4 reporter cells; in some cases mean of two or more determinations
readout.label: EC50 (µM)

C[C@@H](O)CN(C)c1ccc2c(=O)c(C(=O)N[C@@H](C3CC3)C(F)(F)F)cn(-c3c(F)cc(F)cc3F)c2n1 [Example 494]: 0.028

(P) CC(C)C(NC(=O)c1cn(-c2c(F)cc(F)cc2F)c2nc(N3C[C@@H](O)CC3=O)ccc2c1=O)C(F)(F)F (mixture of isomers) [Example 526]
(Q) O=C(Nc1c(Cl)cccc1Cl)c1cn(-c2c(F)cc(F)cc2F)c2nc(N3C[C@@H](O)CC3=O)ccc2c1=O [Example 592]
(R) COC(=O)[C@H]1CN(c2ccc3c(=O)c(C(=O)N[C@@H](C4CC4)C(F)(F)F)cn(-c4c(F)cc(F)cc4F)c3n2)C(=O)O1 [Example 669]
Exercise: I would appreciate it if you could sort these 3 compounds by EC50, starting from the smallest number. Returns: the labels listed in the requested order.
Solution: P, Q, R
